Observed Property: melting point

A selection of reference data follows.
1) CCOC(=O)c1oc2nc(-c3ccc4ccccc4c3)cc(-c3cccs3)c2c1N    185 to 186 °C
2) COc1nc(-c2ccc3ccccc3c2)cc(-c2cccs2)c1C#N    125 to 126 °C
3) O=c1[nH]cnc2c1oc1nc(-c3ccc4ccccc4c3)cc(-c3cccs3)c12    197 to 198 °C

Enquiry: State the recorded melting point for this entry: N#Cc1c(-c2cccs2)cc(-c2ccc3ccccc3c2)nc1OC1=NC(=S)NC1
Return: 172 to 173 °C

Enquiry: Sample Nc1n[nH]c2nc(-c3ccc4ccccc4c3)cc(-c3cccs3)c12 — what was its melting point?
Return: 175 to 176 °C

---

Recorded melting point for the following compounds

# annotated cases, reported melting point shown
1. N#Cc1c(-c2cccs2)cc(-c2ccc3ccccc3c2)nc1SC(=O)CCl    160 to 161 °C
2. N#Cc1c(-c2cccs2)cc(-c2ccc3ccccc3c2)nc1OC(=O)CCl    165 to 166 °C

Enquiry: melting point lookup needed for N#Cc1c(-c2cccs2)cc(-c2ccc3ccccc3c2)nc1Nc1ccccc1 , thanks.
Return: 130 to 131 °C

---

Tested on: HCT-116 (human colorectal carcinoma) cells
Test: MTT cytotoxicity assay, HCT-116
Format: cell-based
Settings: 48 h, read-out: IC50 (µM) ± SD HCT-116
Observed Property: IC50 (µM)
// units = µM; emit number, no label

Enquiry: Requested read-out: IC50. Entry: N#Cc1c(-c2cccs2)cc(-c2ccc3ccccc3c2)nc1Cl
Return: 45.9

Enquiry: Tell me the measured IC50 of COc1nc(-c2ccc3ccccc3c2)cc(-c2cccs2)c1C#N , please.
Return: 33.8

Enquiry: // IC50 lookup, key: N#Cc1c(-c2cccs2)cc(-c2ccc3ccccc3c2)nc1SC(=O)CCl
Return: 31.7

---

System: HCT-116 (human colorectal carcinoma) cells
Test: MTT cytotoxicity assay, HCT-116
Type: cell-based
Conditions: 48 h, read-out: IC50 (µM) ± SD HCT-116
Experimental: In this study, ten compounds were examined in vitro for their activities against HCT-116, MCF-7, HepG2, and A549 human cancer cells using the MTT assay. The percentages of intact cells were calculated and compared to those of the control. The activities of these compounds against the four cell lines were compared to the activity of doxorubicin as well. […]
Listed here are molecules together with their documented IC50.
Report as a plain number; the unit µM is understood.

Sample answers from the record:
1. COc1cccc2c1C(=O)c1c(O)c3c(c(O)c1C2=O)C[C@@](O)(C(=O)CO)C[C@@H]3O[C@H]1C[C@H](N)[C@H](O)[C@H](C)O1 [Doxorubicin, reference compound]    40
2. N#Cc1c(-c2cccs2)cc(-c2ccc3ccccc3c2)nc1OC(=O)CCl    43.5

Enquiry: Any idea what IC50 was measured for N#Cc1c(-c2cccs2)cc(-c2ccc3ccccc3c2)[nH]c1=O ?
Return: 39.1

Enquiry: Please give the measured IC50 for this molecule: N#Cc1c(-c2cccs2)cc(-c2ccc3ccccc3c2)nc1OC1=NC(=S)NC1
Return: 49

Enquiry: If you can, please state the reported IC50 value of CCOC(=O)c1oc2nc(-c3ccc4ccccc4c3)cc(-c3cccs3)c2c1N .
Return: 31.3

Enquiry: Which IC50 is listed for Nc1n[nH]c2nc(-c3ccc4ccccc4c3)cc(-c3cccs3)c12 ?
Return: 33.7

Enquiry: Entry N#Cc1c(-c2cccs2)cc(-c2ccc3ccccc3c2)[nH]c1=S : reported IC50 = ?
Return: 37.8

Enquiry: Bench note: what IC50 did CCOC(=O)COc1nc(-c2ccc3ccccc3c2)cc(-c2cccs2)c1C#N show?
Return: 32.4
